# Tested on: SN12C renal
# ASSAY_TEXT: NCI tumour cell line growth inhibition, 48 h
The reader will find reported TGI values listed item by item below.
ENDPOINT: TGI

| MOLECULE | TARGET_OF_ASSAY | MEASURED |
| --- | --- | --- |
| CC1(C)N=C(N)N=C(N)N1c1ccc(OCc2ccc(S(=O)(=O)F)c(Cl)c2)c(Cl)c1 | SN12C renal | > 100 µM |
| Cc1[nH]c2ccccc2c1C1Cc2ccccc2N1C(=O)/C(Cl)=C/c1ccccc1 (stereo not given) | SN12C renal | > 100 µM |
| O=C1CCCC2(c3ccccc3)Nc3ccccc3N12 (stereo not given) | SN12C renal | > 100 µM |
| COC1(OC)CC(CO)(CNc2nc(N)nc(Cl)c2/C=N\O)C1 | SN12C renal | > 100 µM |
| O=C1C(Cl)C(c2cccc(Cl)c2)N1c1ccc(-n2c(=S)[nH]c3ccccc3c2=O)cc1 (stereo not given) | SN12C renal | 31.9 µM |

---

The reader will find reported GI50 values listed item by item below.
# Tested on: SNB-19 CNS
# ASSAY_TEXT: NCI tumour cell line growth inhibition, 48 h
ENDPOINT: GI50

| MOLECULE | TARGET_OF_ASSAY | MEASURED |
| --- | --- | --- |
| Cc1ccc(C(=O)Nc2ccc(CN3CCN(C)CC3)c(C(F)(F)F)c2)cc1C#Cc1cnc(N)c2ccccc12 | SNB-19 CNS | 769 nM |
| CCC(=O)c1c(C(F)(F)F)n([O-])c2ccc(C)cc2[n+]1=O | SNB-19 CNS | 15200 nM |
| Cc1ccc(NC(=O)c2sc3nc(C)c(C(O)c4ccccc4)cc3c2N)cc1 (stereo not given) | SNB-19 CNS | 542 nM |
| O=C1NN(C2=NNC3(C(=O)N2)c2ccccc2-c2ccccc23)C(c2ccccc2)=N/C1=C/c1ccc(O)cc1 | SNB-19 CNS | 94.9 µg/mL |
| C=C1CC[C@@H]2[C@](C)(COC(C)=O)[C@H](OC(C)=O)CC[C@@]2(C)[C@@H]1CC(Nc1ccc(S(=O)(=O)Nc2ncccn2)cc1)C1=CCOC1=O (stereo not given in full) | SNB-19 CNS | 1630 nM |

---

The reader will find reported TGI values listed item by item below.
# Tested on: UACC-62 melanoma
# ASSAY_TEXT: NCI tumour cell line growth inhibition, 48 h

| COMPOUND | TGI |
| --- | --- |
| CC(C)CCCC(=O)CCCCCCC(=O)CCN(O)C(=O)C(N)CO (stereo unspecified) | 34.6 µM |
| Nc1ncn(C2CC(O)C(CO)O2)c(=O)n1 (stereo unspecified) | 265 µM |
| N#Cc1cccc(NC(=O)c2cc(-c3ccc(F)cc3F)ccc2O)c1 | 4.42 µM |
| CC1(C)N=C(N)N=C(N)N1c1ccc(OCc2ccc(S(=O)(=O)F)c(Cl)c2)c(Cl)c1 | > 100 µM |
| COc1ccc2c3c(coc13)C(CCC(=O)O)CC2 (stereo unspecified) | > 100 µM |
| O=C1O/C(=C(/Br)c2ccc(Cl)c(Cl)c2)c2ccccc21 | > 10 µM |
| N.N.O=C([O-])P(=O)([O-])[O-].[Na+].[Pt+4] | > 100 µM |
| C=C(C)C(=O)OC1CCC2(C)C(CCC3C2CCC2(C)C(c4ccc(=O)oc4)CC4OC432)C1 (stereo unspecified) | 17.2 µM |
| C/C(=N\Nc1ccc(Cl)cn1)c1ccccn1 | > 100 µM |
| c1cc2c(ncc3cscc32)s1 | > 31.6 µM |
| CCCCCCC(=O)C/C(=N/NC(N)=S)C(=O)NC1C2CC3CC(C2)CC1C3 (stereo unspecified) | > 100 µM |
